- target_system: Kras and SOS1 (biotin-tagged human Kras loaded with GDP, His-tagged human SOS1) (Homo sapiens, UniProt P01116, G12D)
- Construct: made in house; host or cells: E. coli (stated for Kras only)
- Sequence (P01116 1-188 isoform P01116-2 G12D): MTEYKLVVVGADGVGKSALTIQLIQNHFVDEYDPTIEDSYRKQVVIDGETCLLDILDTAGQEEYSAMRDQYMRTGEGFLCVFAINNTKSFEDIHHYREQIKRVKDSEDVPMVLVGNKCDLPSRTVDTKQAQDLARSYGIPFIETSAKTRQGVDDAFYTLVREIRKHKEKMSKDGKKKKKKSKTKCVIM
- protocol_summary: Protein-protein interaction inhibition between Kras and SOS1 (KrasGl2D-SOS PPI) using AlphaScreen
- Type: binding
- experimental_conditions: AlphaScreen; biotin-tagged human Kras loaded with GDP, His-tagged human SOS1; read-out: KRAS G12D-SOS PPI IC50
Starred links: 1 amine or outer side, 2 acyl side, 3 side chain; linkers in the order of their positions; H or OH if unused. Positions of bridges follow the written chain, without caps; N, C: chain ends. Non-standard residues stand in square brackets, D forms with d. Residues, ends and D or L forms follow the SMILES beside them. *: point of attachment. NMeAbu(3,3-F2-piperidino) = CN[C@@H](CCN1CCCC(F)(F)C1)C(=O)O; hPhe(3-Cl-4-CF3) = N[C@@H](CCc1ccc(C(F)(F)F)c(Cl)c1)C(=O)O; hPhe(3-F,4-CF3) = N[C@@H](CCc1ccc(C(F)(F)F)c(F)c1)C(=O)O; X82 = O=C([C@H](Cc1cccc(OC(F)(F)F)c1)N[*:1])[*:2]; hPhe(4-CF3) = N[C@@H](CCc1ccc(C(F)(F)F)cc1)C(=O)O; X50 = O=C([C@H](Cc1cc(F)cc(Br)c1)N[*:1])[*:2]; NMePhe(4-Cl) = CN[C@@H](Cc1ccc(Cl)cc1)C(=O)O; NMePhe(4-Me) = CN[C@@H](Cc1ccc(C)cc1)C(=O)O; Phe(3-Cl) = N[C@@H](Cc1cccc(Cl)c1)C(=O)O; NMeGly(cPent) = CN[C@H](C(=O)O)C1CCCC1; NMeY = CN[C@@H](Cc1ccc(O)cc1)C(=O)O; NMeCha = CN[C@@H](CC1CCCCC1)C(=O)O; NMeChg = CN[C@H](C(=O)O)C1CCCCC1; NMeF = CN[C@@H](Cc1ccccc1)C(=O)O; NMeI = CC[C@H](C)[C@H](NC)C(=O)O; NMeD = CN[C@@H](CC(=O)O)C(=O)O; NMeL = CN[C@@H](CC(C)C)C(=O)O; NMeV = CN[C@H](C(=O)O)C(C)C; d(β3hA) = C[C@@H](N)CC(=O)O; NMeAbu = CC[C@H](NC)C(=O)O; Pip = O=C(O)[C@@H]1CCCCN1; NMeA = CN[C@@H](C)C(=O)O; NMeAib = CNC(C)(C)C(=O)O; Nle = CCCC[C@H](N)C(=O)O; Piperidide = C1CCN(*)CC1; Pyrrolidide = C1CCN(*)C1; Ac5c = NC1(C(=O)O)CCCC1; Aze = O=C(O)[C@@H]1CCN1; NEtG = CCNCC(=O)O; Sar = CNCC(=O)O

>  <molecule>
CC[C@H](C)[C@@H]1NC(=O)[C@H](C)N(C)C(=O)C[C@@H](C(=O)N2CCCC2)NC(=O)[C@H](C(C)C)N(C)C(=O)[C@H](Cc2ccccc2)N(C)C(=O)[C@H](Cc2ccccc2)NC(=O)[C@H](Cc2cccc(Cl)c2)NC(=O)CN(CC)C(=O)[C@H](Cc2ccc(Cl)cc2)N(C)C(=O)CN(C)C(=O)CN(C)C1=O [Compound 29] ([NMeA]I[Sar][Sar][NMePhe(4-Cl)][NEtG][Phe(3-Cl)]F[NMeF][NMeV]D-Pyrrolidide; lactam N-11)

>  <IC50>
320 nM

$$$$
>  <molecule>
CC[C@H](C)[C@@H]1NC(=O)[C@H](CC(C)C)N(C)C(=O)C[C@@H](C(=O)N2CCCC2)N(C)C(=O)[C@H](C2CCCC2)N(C)C(=O)C2(CCCC2)NC(=O)[C@@H]2CCCN2C(=O)[C@H](CCc2ccc(C(F)(F)F)c(Cl)c2)NC(=O)CN(C)C(=O)[C@H](Cc2ccc(C)cc2)N(C)C(=O)[C@@H]2CCN2C(=O)[C@H](C)N(C)C1=O [Compound 1840] ([NMeL]I[NMeA][Aze][NMePhe(4-Me)][Sar][hPhe(3-Cl-4-CF3)]P[Ac5c][NMeGly(cPent)][NMeD]-Pyrrolidide; lactam N-11)

>  <IC50>
1.2 nM

$$$$
>  <molecule>
CC[C@H](C)[C@@H]1NC(=O)[C@H](C)NC(=O)C[C@@H](C(=O)N2CCCC2)NC(=O)[C@H](CC(C)C)N(C)C(=O)[C@H](Cc2ccccc2)N(C)C(=O)[C@H](CC(C)C)NC(=O)[C@H](CCc2ccc(C(F)(F)F)cc2)NC(=O)CN(C)C(=O)[C@H](Cc2ccc(Cl)cc2)N(C)C(=O)CN(C)C(=O)CN(C)C1=O [Compound 989] (AI[Sar][Sar][NMePhe(4-Cl)][Sar][hPhe(4-CF3)]L[NMeF][NMeL]D-Pyrrolidide; lactam N-11)

>  <IC50>
34 nM

$$$$
>  <molecule>
CCCC[C@@H]1NC(=O)[C@H](CC(C)C)N(C)C(=O)C[C@@H](C)NC(=O)[C@H](CC(C)C)N(C)C(=O)C2(CCCC2)NC(=O)[C@@H]2CCCN2C(=O)[C@H](CCc2ccc(C(F)(F)F)c(F)c2)NC(=O)CN(C)C(=O)[C@H](CC2CCCCC2)N(C)C(=O)CN(C)C(=O)CN(C)C1=O [Compound 1490] (cyclo([Ac5c][NMeL][d(β3hA)][NMeL][Nle][Sar][Sar][NMeCha][Sar][hPhe(3-F,4-CF3)]P))

>  <IC50>
320 nM

$$$$
>  <molecule>
CCCC[C@@H]1NC(=O)[C@H](Cc2cc(F)cc(Br)c2)NC(=O)CN(C)C(=O)[C@H](Cc2ccc(OC)cc2)N(C)C(=O)[C@@H]2CCN2C(=O)[C@H](C)N(C)C(=O)[C@H]([C@@H](C)CC)NC(=O)[C@H](CC)N(C)C(=O)C[C@@H](C(=O)N2CCCCC2)N(C)C(=O)[C@H](CC(C)C)NC(=O)C(C)(C)N(C)C1=O [Compound 1372] ([NMeAbu]I[NMeA][Aze][NMeY](Me)[Sar][X50][Nle][NMeAib]L[NMeD]-Piperidide; lactam N-11)

>  <IC50>
17 nM

$$$$
>  <molecule>
CC[C@H](C)[C@@H]1NC(=O)[C@H](C)N(C)C(=O)C[C@@H](C(=O)N2CCCCC2)NC(=O)[C@H](CC(C)C)N(C)C(=O)[C@H](Cc2ccccc2)N(C)C(=O)[C@H](CC(C)C)NC(=O)[C@H](Cc2cccc(OC(F)(F)F)c2)NC(=O)CN(C)C(=O)[C@H](Cc2ccc(Cl)cc2)N(C)C(=O)CN(C)C(=O)CN(C)C1=O [Compound 473] ([NMeA]I[Sar][Sar][NMePhe(4-Cl)][Sar][X82]L[NMeF][NMeL]D-Piperidide; lactam N-11)

>  <IC50>
410 nM

$$$$
>  <molecule>
CC[C@H](C)[C@@H]1NC(=O)[C@H](CC(C)C)N(C)C(=O)C[C@@H](C(=O)N(C)C)N(C)C(=O)[C@H]([C@@H](C)CC)N(C)C(=O)[C@H](C)NC(=O)[C@H](CCN2CCCC(F)(F)C2)N(C)C(=O)[C@H](CCc2ccc(C(F)(F)F)c(Cl)c2)NC(=O)CN(C)C(=O)[C@H](Cc2ccc(C)cc2)N(C)C(=O)[C@@H]2CCN2C(=O)[C@H](C)N(C)C1=O [Compound 1135] ([NMeL]I[NMeA][Aze][NMePhe(4-Me)][Sar][hPhe(3-Cl-4-CF3)][NMeAbu(3,3-F2-piperidino)]A[NMeI][NMeD]-NMe2; lactam N-11)

>  <IC50>
5.8 nM

$$$$
>  <molecule>
CC[C@H](C)[C@@H]1NC(=O)[C@H](CC(C)C)N(C)C(=O)C[C@@H](C(=O)N2CCCCC2)N(C)C(=O)[C@H](C(C)C)N(C)C(=O)C2(CCCC2)NC(=O)[C@@H]2CCCN2C(=O)[C@H](CCc2ccc(C(F)(F)F)c(Cl)c2)NC(=O)CN(C)C(=O)[C@H](CC2CCCCC2)N(C)C(=O)[C@@H]2CCN2C(=O)[C@@H]2CCCCN2C1=O [Compound 988] ([NMeL]I[Pip][Aze][NMeCha][Sar][hPhe(3-Cl-4-CF3)]P[Ac5c][NMeV][NMeD]-Piperidide; lactam N-11)

>  <IC50>
12 nM

$$$$
>  <molecule>
CC[C@H](C)[C@@H]1NC(=O)[C@H](CC2CCCCC2)N(C)C(=O)C[C@@H](C(=O)N2CCCCC2)N(C)C(=O)[C@H](C2CCCCC2)N(C)C(=O)C2(CCCC2)NC(=O)[C@@H]2CCCN2C(=O)[C@H](CCc2ccc(C(F)(F)F)c(Cl)c2)NC(=O)CN(C)C(=O)[C@H](CC2CCCCC2)N(C)C(=O)CN(C)C(=O)CN(C)C1=O [Compound 983] ([NMeCha]I[Sar][Sar][NMeCha][Sar][hPhe(3-Cl-4-CF3)]P[Ac5c][NMeChg][NMeD]-Piperidide; lactam N-11)

>  <IC50>
1.8 nM

$$$$
